Source of measurements: ChEMBL document CHEMBL4680343

- System: Enterococcus faecium
- Protocol Text: Antimicrobial activity against vancomycin-resistant Enterococcus faecium assessed as inhibition of microbial growth incubated for 16 to 20 hrs under ambient air condition by broth microdilution assay
- Type: functional
- Conditions: time 16-20 hrs
Measurement Name: MIC (µg/mL)
All answers are understood in µg/mL, so give the number only.

For C/C=C1\NC(=O)[C@H]([C@@H](C)O)NC(=O)c2csc(n2)-c2cc(O)c(-c3nc(C(=O)NC(CNc4ccc(Br)cc4)C(N)=O)cs3)nc2-c2csc(n2)[C@@H]2CSC(=O)c3[nH]c4cccc(c4c3C)COC(=O)[C@H](O)C[C@H](NC(=O)c3csc1n3)c1nc(cs1)C(=O)N2 (some centres not stated) , what is its reported MIC?
0.031

What do we get for C/C=C1\NC(=O)[C@H]([C@@H](C)O)NC(=O)c2csc(n2)-c2cc(O)c(-c3nc(C(=O)NC(CNc4cccc(C)c4)C(N)=O)cs3)nc2-c2csc(n2)[C@@H]2CSC(=O)c3[nH]c4cccc(c4c3C)COC(=O)[C@H](O)C[C@H](NC(=O)c3csc1n3)c1nc(cs1)C(=O)N2 (some centres not stated) ?
0.015

* * *

For each record, write down the corresponding MIC.
- Test system: Enterococcus faecium
- Protocol Text: Antimicrobial activity against vancomycin-resistant Enterococcus faecium assessed as inhibition of microbial growth incubated for 16 to 20 hrs under ambient air condition by broth microdilution assay
- Type: functional
- Conditions: time 16-20 hrs
Quick note: give the figure in µg/mL, leave out the unit.

So what does the record say about MIC for C/C=C1\NC(=O)[C@H]([C@@H](C)O)NC(=O)c2csc(n2)-c2cc(O)c(-c3nc(C(=O)NC(CNc4ccccc4F)C(N)=O)cs3)nc2-c2csc(n2)[C@@H]2CSC(=O)c3[nH]c4cccc(c4c3C)COC(=O)[C@H](O)C[C@H](NC(=O)c3csc1n3)c1nc(cs1)C(=O)N2 (some centres not stated) ?
0.015

Also check C/C=C1\NC(=O)[C@H]([C@@H](C)O)NC(=O)c2csc(n2)-c2cc(O)c(-c3nc(C(=O)NC(CNc4ccccc4C(F)(F)F)C(N)=O)cs3)nc2-c2csc(n2)[C@@H]2CSC(=O)c3[nH]c4cccc(c4c3C)COC(=O)[C@H](O)C[C@H](NC(=O)c3csc1n3)c1nc(cs1)C(=O)N2 (some centres not stated)
0.015

Further, for C/C=C1\NC(=O)[C@H]([C@@H](C)O)NC(=O)c2csc(n2)-c2cc(O)c(-c3nc(C(=O)NC(CNc4cccc(F)c4)C(N)=O)cs3)nc2-c2csc(n2)[C@@H]2CSC(=O)c3[nH]c4cccc(c4c3C)COC(=O)[C@H](O)C[C@H](NC(=O)c3csc1n3)c1nc(cs1)C(=O)N2 (some centres not stated) ?
0.031

Also, C/C=C1\NC(=O)[C@H]([C@@H](C)O)NC(=O)c2csc(n2)-c2cc(O)c(-c3nc(C(=O)NC(CNc4ccc(I)cc4)C(N)=O)cs3)nc2-c2csc(n2)[C@@H]2CSC(=O)c3[nH]c4cccc(c4c3C)COC(=O)[C@H](O)C[C@H](NC(=O)c3csc1n3)c1nc(cs1)C(=O)N2 (some centres not stated) please.
0.015

Now the compound C/C=C1\NC(=O)[C@H]([C@@H](C)O)NC(=O)c2csc(n2)-c2cc(O)c(-c3nc(C(=O)NC(CNc4cccc(I)c4)C(N)=O)cs3)nc2-c2csc(n2)[C@@H]2CSC(=O)c3[nH]c4cccc(c4c3C)COC(=O)[C@H](O)C[C@H](NC(=O)c3csc1n3)c1nc(cs1)C(=O)N2 (some centres not stated)
0.0078

Also C/C=C1\NC(=O)[C@H]([C@@H](C)O)NC(=O)c2csc(n2)-c2cc(O)c(-c3nc(C(=O)NC(CNc4cccc(Br)c4)C(N)=O)cs3)nc2-c2csc(n2)[C@@H]2CSC(=O)c3[nH]c4cccc(c4c3C)COC(=O)[C@H](O)C[C@H](NC(=O)c3csc1n3)c1nc(cs1)C(=O)N2 (some centres not stated) , if possible.
0.031

Please answer likewise for C/C=C1\NC(=O)[C@H]([C@@H](C)O)NC(=O)c2csc(n2)-c2cc(O)c(-c3nc(C(=O)NC(CNc4ccccc4C)C(N)=O)cs3)nc2-c2csc(n2)[C@@H]2CSC(=O)c3[nH]c4cccc(c4c3C)COC(=O)[C@H](O)C[C@H](NC(=O)c3csc1n3)c1nc(cs1)C(=O)N2 (some centres not stated)
0.015

* * *

Field: MIC. Provide a value for each of the compounds that follow.
- Test system: Staphylococcus aureus
- Protocol Text: Antimicrobial activity against Staphylococcus aureus ATCC 25923 assessed as inhibition of microbial growth incubated for 16 to 20 hrs under ambient air condition by broth microdilution assay
- Type: functional
- Conditions: time 16-20 hrs

Would you mind telling me what MIC value was observed for C/C=C1\NC(=O)[C@H]([C@@H](C)O)NC(=O)c2csc(n2)-c2cc(O)c(-c3nc(C(=O)NC(CNc4ccccc4C(F)(F)F)C(N)=O)cs3)nc2-c2csc(n2)[C@@H]2CSC(=O)c3[nH]c4cccc(c4c3C)COC(=O)[C@H](O)C[C@H](NC(=O)c3csc1n3)c1nc(cs1)C(=O)N2 (stereo partly drawn) ?
0.031 µg/mL

Moving on to the next compound: C/C=C1\NC(=O)[C@H]([C@@H](C)O)NC(=O)c2csc(n2)-c2cc(O)c(-c3nc(C(=O)NC(CNc4cccc(C)c4)C(N)=O)cs3)nc2-c2csc(n2)[C@@H]2CSC(=O)c3[nH]c4cccc(c4c3C)COC(=O)[C@H](O)C[C@H](NC(=O)c3csc1n3)c1nc(cs1)C(=O)N2 (stereo partly drawn)
0.031 µg/mL

Entry C/C=C1\NC(=O)[C@H]([C@@H](C)O)NC(=O)c2csc(n2)-c2cc(O)c(-c3nc(C(=O)NC(CNc4cccc(I)c4)C(N)=O)cs3)nc2-c2csc(n2)[C@@H]2CSC(=O)c3[nH]c4cccc(c4c3C)COC(=O)[C@H](O)C[C@H](NC(=O)c3csc1n3)c1nc(cs1)C(=O)N2 (stereo partly drawn) please
0.031 µg/mL

Cool, now C/C=C1\NC(=O)[C@H]([C@@H](C)O)NC(=O)c2csc(n2)-c2cc(O)c(-c3nc(C(=O)NC(CNc4ccccc4Br)C(N)=O)cs3)nc2-c2csc(n2)[C@@H]2CSC(=O)c3[nH]c4cccc(c4c3C)COC(=O)[C@H](O)C[C@H](NC(=O)c3csc1n3)c1nc(cs1)C(=O)N2 (stereo partly drawn)
0.015 µg/mL

Further, for `C=C(NC(=O)c1csc(-c2nc3c(cc2O)-c2nc(cs2)C(=O)N[C@@H]([C@@H](C)O)C(=O)N/C(=C\C)c2nc(cs2)C(=O)N[C@H]2C[C@@H](O)C(=O)OCc4cccc5[nH]c(c(C)c45)C(=O)SC[C@H](NC(=O)c4csc2n4)c2nc-3cs2)n1)C(N)=O` ?
0.062 µg/mL

What do you have for C/C=C1\NC(=O)[C@H]([C@@H](C)O)NC(=O)c2csc(n2)-c2cc(O)c(-c3nc(C(=O)NC(CNc4cccc(Br)c4)C(N)=O)cs3)nc2-c2csc(n2)[C@@H]2CSC(=O)c3[nH]c4cccc(c4c3C)COC(=O)[C@H](O)C[C@H](NC(=O)c3csc1n3)c1nc(cs1)C(=O)N2 (stereo partly drawn) ?
0.062 µg/mL

Item: C/C=C1\NC(=O)[C@H]([C@@H](C)O)NC(=O)c2csc(n2)-c2cc(O)c(-c3nc(C(=O)NC(CNc4ccc(C)cc4)C(N)=O)cs3)nc2-c2csc(n2)[C@@H]2CSC(=O)c3[nH]c4cccc(c4c3C)COC(=O)[C@H](O)C[C@H](NC(=O)c3csc1n3)c1nc(cs1)C(=O)N2 (stereo partly drawn)
0.062 µg/mL

# repeat for C/C=C1\NC(=O)[C@H]([C@@H](C)O)NC(=O)c2csc(n2)-c2cc(O)c(-c3nc(C(=O)NC(CNc4ccccc4C)C(N)=O)cs3)nc2-c2csc(n2)[C@@H]2CSC(=O)c3[nH]c4cccc(c4c3C)COC(=O)[C@H](O)C[C@H](NC(=O)c3csc1n3)c1nc(cs1)C(=O)N2 (stereo partly drawn)
0.015 µg/mL

How about this compound: C/C=C1\NC(=O)[C@H]([C@@H](C)O)NC(=O)c2csc(n2)-c2cc(O)c(-c3nc(C(=O)NC(CNc4ccc(C(F)(F)F)cc4)C(N)=O)cs3)nc2-c2csc(n2)[C@@H]2CSC(=O)c3[nH]c4cccc(c4c3C)COC(=O)[C@H](O)C[C@H](NC(=O)c3csc1n3)c1nc(cs1)C(=O)N2 (stereo partly drawn)
0.031 µg/mL

Next entry: C/C=C1\NC(=O)[C@H]([C@@H](C)O)NC(=O)c2csc(n2)-c2cc(O)c(-c3nc(C(=O)NC(CNc4ccccc4F)C(N)=O)cs3)nc2-c2csc(n2)[C@@H]2CSC(=O)c3[nH]c4cccc(c4c3C)COC(=O)[C@H](O)C[C@H](NC(=O)c3csc1n3)c1nc(cs1)C(=O)N2 (stereo partly drawn)
0.062 µg/mL

Param item: C/C=C1\NC(=O)[C@H]([C@@H](C)O)NC(=O)c2csc(n2)-c2cc(O)c(-c3nc(C(=O)NC(CNc4cccc(C(F)(F)F)c4)C(N)=O)cs3)nc2-c2csc(n2)[C@@H]2CSC(=O)c3[nH]c4cccc(c4c3C)COC(=O)[C@H](O)C[C@H](NC(=O)c3csc1n3)c1nc(cs1)C(=O)N2 (stereo partly drawn)
0.062 µg/mL

What about C/C=C1\NC(=O)[C@H]([C@@H](C)O)NC(=O)c2csc(n2)-c2cc(O)c(-c3nc(C(=O)NC(CNc4ccc(I)cc4)C(N)=O)cs3)nc2-c2csc(n2)[C@@H]2CSC(=O)c3[nH]c4cccc(c4c3C)COC(=O)[C@H](O)C[C@H](NC(=O)c3csc1n3)c1nc(cs1)C(=O)N2 (stereo partly drawn) ?
0.062 µg/mL

Same question for C/C=C1\NC(=O)[C@H]([C@@H](C)O)NC(=O)c2csc(n2)-c2cc(O)c(-c3nc(C(=O)NC(CNc4cccc(F)c4)C(N)=O)cs3)nc2-c2csc(n2)[C@@H]2CSC(=O)c3[nH]c4cccc(c4c3C)COC(=O)[C@H](O)C[C@H](NC(=O)c3csc1n3)c1nc(cs1)C(=O)N2 (stereo partly drawn) please.
0.031 µg/mL
